Attribution: ChEMBL document CHEMBL4350970

assay-system: Serine/threonine-protein kinase ATR (Homo sapiens, UniProt Q13535)
Sequence (Q13535 whole entry): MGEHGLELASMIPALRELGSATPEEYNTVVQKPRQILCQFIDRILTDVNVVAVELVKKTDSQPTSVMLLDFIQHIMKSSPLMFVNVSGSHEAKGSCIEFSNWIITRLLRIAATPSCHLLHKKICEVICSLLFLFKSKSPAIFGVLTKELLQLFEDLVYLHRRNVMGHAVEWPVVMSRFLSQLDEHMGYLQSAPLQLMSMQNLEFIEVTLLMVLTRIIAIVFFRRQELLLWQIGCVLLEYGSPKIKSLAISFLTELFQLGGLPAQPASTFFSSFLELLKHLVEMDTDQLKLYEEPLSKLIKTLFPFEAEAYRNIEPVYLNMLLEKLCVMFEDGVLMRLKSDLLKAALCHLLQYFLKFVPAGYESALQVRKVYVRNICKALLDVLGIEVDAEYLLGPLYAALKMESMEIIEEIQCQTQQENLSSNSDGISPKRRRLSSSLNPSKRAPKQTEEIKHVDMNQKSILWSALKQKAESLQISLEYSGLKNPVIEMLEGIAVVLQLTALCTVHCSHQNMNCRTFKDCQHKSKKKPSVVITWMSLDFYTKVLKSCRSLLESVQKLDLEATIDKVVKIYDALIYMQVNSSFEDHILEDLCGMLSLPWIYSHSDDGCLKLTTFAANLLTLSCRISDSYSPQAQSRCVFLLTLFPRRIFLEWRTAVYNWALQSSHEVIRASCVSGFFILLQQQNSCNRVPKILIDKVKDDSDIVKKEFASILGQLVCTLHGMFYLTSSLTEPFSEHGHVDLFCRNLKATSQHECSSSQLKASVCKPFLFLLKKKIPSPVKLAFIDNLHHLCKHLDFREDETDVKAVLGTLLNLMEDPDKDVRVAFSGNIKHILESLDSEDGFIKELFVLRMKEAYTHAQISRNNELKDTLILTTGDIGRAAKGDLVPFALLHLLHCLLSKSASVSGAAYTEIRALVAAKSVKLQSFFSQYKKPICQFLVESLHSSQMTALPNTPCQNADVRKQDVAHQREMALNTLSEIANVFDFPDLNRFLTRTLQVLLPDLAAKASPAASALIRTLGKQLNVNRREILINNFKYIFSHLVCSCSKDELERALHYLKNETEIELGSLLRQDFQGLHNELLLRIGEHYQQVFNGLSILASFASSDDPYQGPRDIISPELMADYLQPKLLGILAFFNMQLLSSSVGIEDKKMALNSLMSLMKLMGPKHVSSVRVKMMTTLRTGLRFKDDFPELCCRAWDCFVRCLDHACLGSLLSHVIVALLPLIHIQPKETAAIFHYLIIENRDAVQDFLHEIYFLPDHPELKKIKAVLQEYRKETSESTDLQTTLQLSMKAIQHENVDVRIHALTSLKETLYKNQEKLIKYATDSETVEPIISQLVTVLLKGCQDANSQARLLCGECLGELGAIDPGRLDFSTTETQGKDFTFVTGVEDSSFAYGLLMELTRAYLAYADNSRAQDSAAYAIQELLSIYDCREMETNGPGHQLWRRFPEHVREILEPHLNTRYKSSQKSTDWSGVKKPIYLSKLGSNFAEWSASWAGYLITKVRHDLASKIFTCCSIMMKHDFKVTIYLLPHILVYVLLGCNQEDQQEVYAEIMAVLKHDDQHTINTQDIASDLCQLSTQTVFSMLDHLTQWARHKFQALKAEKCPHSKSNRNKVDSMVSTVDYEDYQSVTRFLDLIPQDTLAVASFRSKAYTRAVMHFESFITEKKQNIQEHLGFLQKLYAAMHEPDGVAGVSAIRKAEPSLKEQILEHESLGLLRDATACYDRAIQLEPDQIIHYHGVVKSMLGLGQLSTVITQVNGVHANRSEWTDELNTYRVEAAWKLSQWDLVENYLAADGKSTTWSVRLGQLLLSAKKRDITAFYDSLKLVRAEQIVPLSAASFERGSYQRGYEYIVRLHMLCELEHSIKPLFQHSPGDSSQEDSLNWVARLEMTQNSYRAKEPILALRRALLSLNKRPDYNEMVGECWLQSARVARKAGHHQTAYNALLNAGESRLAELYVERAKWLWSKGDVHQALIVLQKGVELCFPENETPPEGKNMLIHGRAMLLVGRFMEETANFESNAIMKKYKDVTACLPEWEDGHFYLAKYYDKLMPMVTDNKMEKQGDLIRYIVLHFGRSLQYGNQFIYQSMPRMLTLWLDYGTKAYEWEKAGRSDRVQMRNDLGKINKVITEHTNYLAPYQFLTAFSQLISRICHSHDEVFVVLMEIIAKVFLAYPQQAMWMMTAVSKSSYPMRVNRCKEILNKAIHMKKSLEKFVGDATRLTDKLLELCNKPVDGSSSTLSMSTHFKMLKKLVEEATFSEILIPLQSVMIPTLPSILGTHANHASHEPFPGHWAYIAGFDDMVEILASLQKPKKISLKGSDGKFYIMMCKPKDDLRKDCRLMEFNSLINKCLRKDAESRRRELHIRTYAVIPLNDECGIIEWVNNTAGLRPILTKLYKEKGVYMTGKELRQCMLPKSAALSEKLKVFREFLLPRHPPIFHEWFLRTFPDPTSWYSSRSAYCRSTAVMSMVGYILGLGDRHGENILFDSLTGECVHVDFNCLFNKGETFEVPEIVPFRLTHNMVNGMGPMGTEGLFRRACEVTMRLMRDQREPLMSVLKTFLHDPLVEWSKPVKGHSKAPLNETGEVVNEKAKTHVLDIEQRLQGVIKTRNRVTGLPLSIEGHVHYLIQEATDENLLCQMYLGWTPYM
assay-procedure: Inhibition of recombinant human full-length N-terminal Flag epitope-tagged ATR expressed in HEK293T cells using ASELPASQPQPFSAKKK peptide as substrate measured after 24 hrs in presence of [gamma-33P] ATP by microbeta liquid scintillation counting analysis
# key: entry, value: Ki
Give just the number in nM; leave the unit off.

Illustrative cases are given below, each with its answer.
CC(C)S(=O)(=O)c1ccc(-c2cnc(N)c(-c3nnc(-c4ccccc4)s3)n2)cc1
1
CC(C)S(=O)(=O)c1ccc(-c2cnc(N)c(-c3noc(-c4ccccc4)n3)n2)cc1
5
CC(C)S(=O)(=O)c1ccc(-c2cnc(N)c(-c3cc(-c4ccc([C@H](C)N)cc4)no3)n2)cc1
1.24

Ask | Recorded Ki for CNCc1ccc(-c2cc(-c3nc(-c4ccc(S(=O)(=O)C(C)C)cc4)cnc3N)on2)cc1Cl , please?
Reply | 2.4

----------
assay-system: Serine/threonine-protein kinase ATR (Homo sapiens, UniProt Q13535)
assay-procedure: Inhibition of ATR in human HCT116 cells assessed as reduction in histone H2AX phosphorylation by Hoechst staining-based immunofluorescence microscopic analysis
Format: cell-based
Binning scheme for IC50: low group (below 0.2 µM), middle group (0.2 µM to below 1 µM), high group (1 µM or more)

CC(C)S(=O)(=O)c1ccc(-c2cnc(N)c(-c3cn(-c4ccccc4)nn3)n2)cc1
high group
CNCc1ccc(-c2cc(-c3nc(-c4ccc(S(=O)(=O)C(C)C)cc4)cnc3N)on2)cc1Cl
low group
CC(C)S(=O)(=O)c1ccc(-c2cnc(N)c(-c3cc(-c4ccccc4)on3)n2)cc1
middle group
CC(C)S(=O)(=O)c1ccc(-c2cnc(N)c(-c3cc(-c4ccc(CN)cc4)no3)n2)cc1
high group
CC(C)S(=O)(=O)c1ccc(-c2cnc(N)c(-c3nnc(-c4ccccc4)o3)n2)cc1
middle group
CC(C)S(=O)(=O)c1ccc(-c2cnc(N)c(-c3cc(-c4ccc([C@@H](C)N)cc4)no3)n2)cc1
low group
CC(C)S(=O)(=O)c1ccc(-c2cnc(N)c(-c3nc(-c4ccccc4)no3)n2)cc1
high group
CCNCc1ccc(-c2cc(-c3nc(-c4ccc(S(=O)(=O)C(C)C)cc4)cnc3N)on2)cc1
low group
CC(C)S(=O)(=O)c1ccc(-c2cnc(N)c(-c3cc(-c4ccccc4)no3)n2)cc1
high group
CC(C)S(=O)(=O)c1ccc(-c2cnc(N)c(C(=O)Nc3ccccc3)n2)cc1
high group

Ask | Form: Item = CC(C)S(=O)(=O)c1ccc(-c2cnc(N)c(-c3nnc(-c4ccccc4)s3)n2)cc1 ; Class = ?
Reply | high group

Ask | Form: Item = CC(C)S(=O)(=O)c1ccc(-c2cnc(N)c(C3CC(c4ccccc4)=NO3)n2)cc1 (racemic) ; Class = ?
Reply | high group

Ask | Form: Item = CNCc1ccc(-c2cc(-c3nc(-c4ccc(S(=O)(=O)C(C)C)cc4)cnc3N)on2)c(Cl)c1 ; Class = ?
Reply | middle group

Ask | Form: Item = CC(C)S(=O)(=O)c1ccc(-c2cnc(N)c(-c3noc(-c4ccccc4)n3)n2)cc1 ; Class = ?
Reply | high group

Ask | Form: Item = CC(C)S(=O)(=O)c1ccc(-c2cnc(N)c(-c3ncc(-c4ccccc4)o3)n2)cc1 ; Class = ?
Reply | high group

Ask | Form: Item = CC(C)S(=O)(=O)c1ccc(-c2cnc(N)c(-c3cc(-c4ccc([C@H](C)N)cc4)no3)n2)cc1 ; Class = ?
Reply | middle group
